Cited source for all entries: patent US12582604B2

Assay: Pharmacokinetic comparison of Form A and Form F in dogs (Example 15)
Format: in vivo, Beagle dogs
Conditions: both sexes, beagle, dog, plasma, 0.5 mg/kg, 0.5 mpk IV, read-out: Vdss
Experimental: Pharmacokinetic Comparison of Form A and Form F in Dogs Powder of Form A with particle sizes of D90=62.4 μm after micronization. The material content (purity) was not less than 98.0%. Powder of Form F with particle sizes of D90<200 μm after micronization. […] An appropriate amount of each substance was weighed and was disperse in 0.5% sodium carboxymethyl cellulose. […] All the doses and concentrations of Compound 1 were calculated with freebase in this study. […]
parameter.measured: Vd (L/kg)
Your answer should be a plain number; it is taken to be in L/kg.

Could you share which Vd value was measured for O=C1CCc2c(Oc3ccc4c(c3)[C@H]3[C@H](NC(=O)Nc5cc(F)c(F)cc5F)[C@H]3O4)ccnc2N1 [Form A] ?
0.97

----------
Test: Solubility measurement (shaking 200 rpm at 25° C., HPLC)
Assay type: physicochemical
Conditions: pH 6.8 buffer, pH 6.8, aqueous buffer
parameter.measured: solubility

Could you share which solubility value was measured for O=C1CCc2c(Oc3ccc4c(c3)[C@H]3[C@H](NC(=O)Nc5cc(F)c(F)cc5F)[C@H]3O4)ccnc2N1 [Form A] ?
< 0.1 µg/mL

----------
Experiment: Solubility measurement (shaking 200 rpm at 25° C., HPLC)
Assay type: physicochemical
Settings: DMA, organic solvent or mixture
parameter.measured: solubility at 2 h

Could you share which solubility at 2 h value was measured for O=C1CCc2c(Oc3ccc4c(c3)[C@H]3[C@H](NC(=O)Nc5cc(F)c(F)cc5F)[C@H]3O4)ccnc2N1 [Form A] ?
> 372 mg/mL

----------
Experiment: Pharmacokinetic comparison of Forms A-H in rats (Example 14)
Type: in vivo
Conditions: both sexes, rat, plasma, po, 5 mg/kg, 5 mpk PO
parameter.measured: half-life (h)
Your answer should be a plain number; it is taken to be in h.

Could you share which half-life value was measured for O=C1CCc2c(Oc3ccc4c(c3)[C@H]3[C@H](NC(=O)Nc5cc(F)c(F)cc5F)[C@H]3O4)ccnc2N1 [Form A] ?
2.94

----------
Experiment: Solubility measurement (shaking 200 rpm at 25° C., HPLC)
Assay type: physicochemical
Conditions: 5% SLS, aqueous with cosolvent or surfactant or cyclodextrin
parameter.measured: solubility
Record the result as number plus unit.

Could you share which solubility value was measured for O=C1CCc2c(Oc3ccc4c(c3)[C@H]3[C@H](NC(=O)Nc5cc(F)c(F)cc5F)[C@H]3O4)ccnc2N1 [Form A] ?
1000 µg/mL

----------
Experiment: Pharmacokinetic comparison of Forms A-H in rats (Example 14)
Type: in vivo
Conditions: both sexes, rat, plasma, iv, 1 mg/kg, 1 mpk IV
parameter.measured: half-life (h)
Your answer should be a plain number; it is taken to be in h.

Could you share which half-life value was measured for O=C1CCc2c(Oc3ccc4c(c3)[C@H]3[C@H](NC(=O)Nc5cc(F)c(F)cc5F)[C@H]3O4)ccnc2N1 [Form A] ?
4.2

----------
Assay: Solubility measurement (shaking 200 rpm at 25° C., HPLC)
Assay type: physicochemical
Details: 20% sulfobutyl ether-β-cyclodextrin (SBE-β-CD), aqueous with cosolvent or surfactant or cyclodextrin
parameter.measured: solubility (µg/mL)
Your answer should be a plain number; it is taken to be in µg/mL.

Could you share which solubility value was measured for O=C1CCc2c(Oc3ccc4c(c3)[C@H]3[C@H](NC(=O)Nc5cc(F)c(F)cc5F)[C@H]3O4)ccnc2N1 [Form A] ?
550
